Measured inhibition at 10 µM values are reported for all entries that follow.
biological target: B1R receptor of the rat (CHO K1 cells stably transfected with the B1R gene of the rat) (Rattus norvegicus); construct: expressed in transfected cells; host or cells: CHO K1 cells (Chinese hamster ovary), stably transfected; assay: Functional study on the bradykinin receptor 1 (B1R), Ca2+ fluorescence (Fluo-4) FLIPR/Novostar assay, rB1R cells; assay type: cell-based; settings: CHO-K1, 10 μM, read-out: % Inhibition (r-B1R) at 10 μM
Give the value, in units of %, as a plain number.

Known inhibition at 10 µM results, listed for orientation:
{"Molecule": "Cc1cc(N2CCC(N(C)C(=O)c3ccc4c(c3)C(NC(=O)Nc3ccc(Cl)cc3C(F)(F)F)CC4)CC2)cc(C)n1 (centres unmarked)", "Measurement unit": "%", "inhibition at 10 µM": 92}
{"Molecule": "Cc1cc(N2CCC(N(C)C(=O)c3ccc4c(c3)C(N(C)C(=O)Nc3cccc(Cl)c3)CC4)CC2)cc(C)n1 (centres unmarked)", "Measurement unit": "%", "inhibition at 10 µM": 110}

Report inhibition at 10 µM for CN(C(=O)c1ccc2c(c1)C(N(C)S(=O)(=O)Cc1ccccc1C(F)(F)F)CC2)C1CCN(c2ccncc2)CC1 (centres unmarked) please.
104

Report inhibition at 10 µM for CN(C(=O)c1ccc2c(c1)C(NC(=O)c1cc(F)ccc1Cl)CC2)C1CCN(c2ccc3cnccc3c2)CC1 (centres unmarked) please.
109

Report inhibition at 10 µM for Cc1cc(N2CCC(N(C)C(=O)c3ccc4c(c3)C(N(C)C(=O)Nc3ccccc3Cl)CC4)CC2)cc(C)n1 (centres unmarked) please.
97

====

Measured inhibition at 10 µM values are reported for all entries that follow.
Molecular target: B1R receptor of the rat (CHO K1 cells stably transfected with the B1R gene of the rat) (Rattus norvegicus, UniProt P97583)
Construct: expressed in transfected cells; host or cells: CHO K1 cells (Chinese hamster ovary), stably transfected
Sequence (P97583 1-337): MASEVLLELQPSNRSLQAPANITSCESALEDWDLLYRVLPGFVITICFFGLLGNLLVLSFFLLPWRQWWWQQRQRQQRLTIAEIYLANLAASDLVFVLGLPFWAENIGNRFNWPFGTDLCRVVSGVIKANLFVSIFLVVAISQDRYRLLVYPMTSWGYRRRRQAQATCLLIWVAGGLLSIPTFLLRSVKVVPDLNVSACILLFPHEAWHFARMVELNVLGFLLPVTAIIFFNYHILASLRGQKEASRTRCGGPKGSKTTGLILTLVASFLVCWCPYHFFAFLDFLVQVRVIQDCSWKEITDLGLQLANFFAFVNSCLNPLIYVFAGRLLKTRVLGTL
Test: Functional study on the bradykinin receptor 1 (B1R), Ca2+ fluorescence (Fluo-4) FLIPR/Novostar assay, rB1R cells
Type: cell-based
Details: CHO-K1, 10 μM, read-out: % inhibition (rat B1R) at 10 μM
Give the value, in units of %, as a plain number.

{"Compound": "CN(C(=O)c1ccc2c(c1)[C@H](NC(=O)c1cnccc1C(F)(F)F)CC2)C1CCN(c2ccncc2)CC1 [Example H-36]", "inhibition at 10 µM [%]": 105}

Report inhibition at 10 µM for CN(C(=O)c1cc(F)c2c(c1)[C@H](NC(=O)c1ccccc1Cl)CCO2)C1CCN(c2ccncc2)CC1 [Example H-80] please.
110

Report inhibition at 10 µM for Cc1cc(N2CCC(N(C)C(=O)c3ccc4c(c3)[C@H](N3Cc5cccc(Cl)c5C3=O)CC4)CC2)nc(C)n1 [Example H-130] please.
101
